- Procedure summary: Inhibition of glycogen phosphorylase b (unknown origin)
- Parameters: species or system Homo sapiens
pKi: −log10 of the molar value.
Below, each entry is listed with its recorded pKi.

Compound | pKi
OC[C@H]1O[C@H](CO)[C@@H](O)[C@H](O)[C@H]1O | 2.82
NNC(=O)[C@H]1O[C@H](CO)[C@@H](O)[C@H](O)[C@H]1O | 2.52
CNC(=O)[C@H]1O[C@H](CO)[C@@H](O)[C@H](O)[C@H]1O | 1.44
CNNC(=O)C1O[C@H](CO)[C@@H](O)[C@H](O)[C@H]1O (single isomer, unassigned) | 2.74
O=C(Nc1ccc(O)cc1)[C@H]1O[C@H](CO)[C@@H](O)[C@H](O)[C@H]1O | 2.25
N#CC[C@]1(O)O[C@H](CO)[C@@H](O)[C@H](O)[C@H]1O | 2.12
COC(=O)[C@H]1O[C@H](CO)[C@@H](O)[C@H](O)[C@H]1O | 1.62
CS(=O)(=O)OC[C@]1(O)O[C@H](CO)[C@@H](O)[C@H](O)[C@H]1O | 2.43
CC(=O)NCC(=O)NC1O[C@H](CO)[C@@H](O)[C@H](O)[C@H]1O (single isomer, unassigned) | 3.00
